Reference source for all entries: paper PMC1807944

Molecular target: HIV-1 integrase (IN), monomer E (HIV-1, UniProt P04585 1148-1435)
Assay: SAXS titration
measured parameter: Kd (µM)
Numbers only; they are read as µM.

AAAAA (ssDNA) [ss A5] :: 2.6

Now take the following binder into account.
Would you mind telling me what Kd value was observed for GCAGT (ssDNA) [ss GCAGT] ? 7.1
